Where do the numbers come from? From patent US20240391954A1.

molecular target: human MC3R (Homo sapiens, UniProt P41968); construct: expressed in transfected cells; host or cells: HEK-293 cells stably expressing the GScAMP22F split-luciferase cAMP sensor (parent reporter line from Promega); MC3R clone generated in-house, G418 selection; experiment: split-luciferase cAMP sensor assay, agonist mode (measurement window 1), hMC3R; assay type: cell-based; settings: agonist mode, hMC3R stable cell line; read-out: MC3R cAMP % max activation
Sequence (P41968 whole entry): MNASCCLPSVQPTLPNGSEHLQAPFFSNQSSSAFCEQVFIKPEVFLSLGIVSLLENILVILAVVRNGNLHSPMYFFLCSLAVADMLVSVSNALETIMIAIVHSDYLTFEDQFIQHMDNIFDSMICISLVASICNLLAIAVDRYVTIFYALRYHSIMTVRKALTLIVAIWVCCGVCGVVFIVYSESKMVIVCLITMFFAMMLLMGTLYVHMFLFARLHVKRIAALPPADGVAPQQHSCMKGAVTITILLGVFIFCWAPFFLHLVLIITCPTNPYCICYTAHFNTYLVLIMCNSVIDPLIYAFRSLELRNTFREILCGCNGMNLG
Positions of bridges follow the written chain, without caps; N, C: chain ends. Non-standard residues stand in square brackets, D forms with d. Residues, ends and D or L forms follow the SMILES beside them. dPhe(4-tBu) = CC(C)(C)c1ccc(C[C@@H](N)C(=O)O)cc1; dPhe(4-Br) = N[C@H](Cc1ccc(Br)cc1)C(=O)O; d2Nal = N[C@H](Cc1ccc2ccccc2c1)C(=O)O; dTic = O=C(O)[C@H]1Cc2ccccc2CN1; Nle = CCCC[C@H](N)C(=O)O
Emax below 20% gives F; Emax at or above it gives T.

Example entries and their recorded answers appear below.
In: Dear colleague, could you confirm whether CC(=O)N[C@@H](CCCNC(=N)N)C(=O)N[C@H]1CSSC[C@@H](C(N)=O)NC(=O)[C@@H](Cc2ccccc2)NC(=O)[C@H](CCCNC(=N)N)NC(=O)[C@@H](Cc2ccc(Br)cc2)NC(=O)[C@H](CCCNC(=N)N)NC(=O)[C@@H](C)NC1=O [CTX-1255] (Ac-RC[dA]R[dPhe(4-Br)]R[dF]C-NH2; disulfide 2-8 (inferred)) has Emax at or above 20%?
Out: T

In: Again, but for CC(=O)N[C@H]1CSSC[C@@H](C(N)=O)NC(=O)[C@H](Cc2ccccc2)NC(=O)[C@H](CCCNC(=N)N)NC(=O)[C@@H](Cc2ccc(Br)cc2)NC(=O)[C@H](CCCNC(=N)N)NC(=O)CNC1=O [CTX-1640] (Ac-CGR[dPhe(4-Br)]RFC-NH2; disulfide 1-7 (inferred))
Out: T

In: Again, but for CCCC[C@H](NC(=O)[C@H](CCCNC(=N)N)NC(C)=O)C(=O)N[C@H]1CSSC[C@@H](C(N)=O)NC(=O)[C@@H](Cc2c[nH]c3ccccc23)NC(=O)[C@H](CCCNC(=N)N)NC(=O)[C@@H](Cc2ccc(OC)cc2)NC(=O)[C@H](CCCNC(=N)N)NC1=O [CTX-1615] (Ac-R[Nle]CR[dY](Me)R[dW]C-NH2; disulfide 3-8)
Out: T

In: Again, but for CC(=O)N[C@@H](CCCNC(=N)N)C(=O)N[C@H]1CSSC[C@@H](C(N)=O)NC(=O)[C@H](Cc2c[nH]c3ccccc23)NC(=O)[C@H](CCCNC(=N)N)NC(=O)[C@@H](Cc2ccc3ccccc3c2)NC(=O)[C@@H]2CCCN2C(=O)[C@@H](C)NC1=O [CTX-2203] (Ac-RC[dA]P[d2Nal]RWC-NH2; disulfide 2-8 (inferred))
Out: F

In: Again, but for CC(=O)N[C@@H](CCCNC(=N)N)C(=O)N[C@H]1CSSC[C@@H](C(N)=O)NC(=O)[C@H]2Cc3ccccc3CN2C(=O)[C@H](CCCNC(=N)N)NC(=O)[C@@H](Cc2ccc(Br)cc2)NC(=O)[C@H](CCCNC(=N)N)NC(=O)[C@@H](C)NC1=O [CTX-1256] (Ac-RC[dA]R[dPhe(4-Br)]R[dTic]C-NH2; disulfide 2-8 (inferred))
Out: F

More entries:
In: Dear colleague, could you confirm whether CC(=O)N[C@@H](CCCNC(=N)N)C(=O)N[C@H]1CSSC[C@@H](C(N)=O)NC(=O)[C@@H](Cc2c[nH]c3ccccc23)NC(=O)[C@H](CCCNC(=N)N)NC(=O)[C@@H](Cc2ccc(C(C)(C)C)cc2)NC(=O)[C@H](CCCNC(=N)N)NC(=O)[C@@H](C)NC1=O [CTX-1242] (Ac-RC[dA]R[dPhe(4-tBu)]R[dW]C-NH2; disulfide 2-8 (inferred)) has Emax at or above 20%?
Out: F

In: Again, but for CCCC[C@H](NC(=O)[C@H](CCCNC(=N)N)NC(C)=O)C(=O)N[C@H]1CSSC[C@@H](C(N)=O)NC(=O)[C@@H](Cc2c[nH]c3ccccc23)NC(=O)[C@H](CCCNC(=N)N)NC(=O)[C@@H](Cc2ccc(Br)cc2)NC(=O)[C@H](CCCNC(=N)N)NC1=O [CTX-1613] (Ac-R[Nle]CR[dPhe(4-Br)]R[dW]C-NH2; disulfide 3-8 (inferred))
Out: T
